Test: Human HepG2 cell viability assay in 384 well format
Format: toxicity, cell-based
Parameters: dose 125 nL, time 70.5 hour; concentration not given beside the values
Conditions: HepG2 cells, read-out: Inhibition
ASSAY READOUT: cytotoxicity at 70.5 h (%)

[
  {
    "COMPOUND": "CCN(CC)CCNc1ncc(-c2cc(C)no2)c(-c2ccoc2C)n1",
    "UNITS LABEL": "%",
    "RECORDED MEASUREMENT": -10.5
  },
  {
    "COMPOUND": "Cc1nccc(CN2Cc3nccn3CC2c2ccccc2)n1 (stereo unspecified)",
    "UNITS LABEL": "%",
    "RECORDED MEASUREMENT": -4.01
  },
  {
    "COMPOUND": "CNC(=O)c1cn[nH]c1C1(C)CCCN(Cc2ccccc2OC)C1 (stereo unspecified)",
    "UNITS LABEL": "%",
    "RECORDED MEASUREMENT": 3.23
  },
  {
    "COMPOUND": "COc1ccc(C(=O)NCC(=O)N(Cc2ccsc2)C2CC2)cc1OC",
    "UNITS LABEL": "%",
    "RECORDED MEASUREMENT": 30.2
  },
  {
    "COMPOUND": "COCCOCC(=O)NCCCOC1CCCc2ccccc21 (stereo unspecified)",
    "UNITS LABEL": "%",
    "RECORDED MEASUREMENT": 27.2
  },
  {
    "COMPOUND": "O=C(c1ccc[nH]1)N1CCc2ncc(Cn3cccn3)n2CC1",
    "UNITS LABEL": "%",
    "RECORDED MEASUREMENT": 18.1
  },
  {
    "COMPOUND": "COCCCNC(=O)Cc1cc(-c2ccccc2)on1",
    "UNITS LABEL": "%",
    "RECORDED MEASUREMENT": -0.233
  },
  {
    "COMPOUND": "Cc1c[nH]c(C(=O)N2C[C@H]3CC[C@@H]2CN(Cc2cscn2)C3)n1",
    "UNITS LABEL": "%",
    "RECORDED MEASUREMENT": -15.6
  },
  {
    "COMPOUND": "COCCn1c2c(ccc1=O)CCN(C(=O)Cc1cccs1)CC2",
    "UNITS LABEL": "%",
    "RECORDED MEASUREMENT": -5.4
  },
  {
    "COMPOUND": "CCOCC1CN(S(=O)(=O)N(C)C)Cc2cnn(C)c21 (stereo unspecified)",
    "UNITS LABEL": "%",
    "RECORDED MEASUREMENT": -6.39
  },
  {
    "COMPOUND": "CC(C)[C@@H]1CN(S(=O)(=O)Cc2ccccc2)C[C@H]1NS(=O)(=O)N(C)C",
    "UNITS LABEL": "%",
    "RECORDED MEASUREMENT": -2.27
  }
]

* * *

Test: Human HepG2 cell viability assay in 384 well format
Assay type: toxicity, cell-based
Set-up: dose 125 nL, time 70.5 hour; concentration not given beside the values
Details: HepG2 cells, read-out: Inhibition
Measured cytotoxicity at 70.5 h, listed per entry for reference.

[
  {
    "COMPOUND": "CCc1nc(C2CCCN(C(=O)NCCOC)C2)no1 (configuration not stated)",
    "UNITS LABEL": "%",
    "cytotoxicity at 70.5 h": 21.2
  },
  {
    "COMPOUND": "CN(C(=O)Cc1ccc(F)cc1)C1CCN(c2ccccn2)CC1",
    "UNITS LABEL": "%",
    "cytotoxicity at 70.5 h": -1.36
  },
  {
    "COMPOUND": "COCCN(C)C[C@H]1CC[C@@H](Cc2ccc3c(cnn3C)c2)O1",
    "UNITS LABEL": "%",
    "cytotoxicity at 70.5 h": -6.52
  },
  {
    "COMPOUND": "CCSc1ncc(-c2cc(C3CCC3)nc(N)c2C#N)cn1",
    "UNITS LABEL": "%",
    "cytotoxicity at 70.5 h": 9.11
  },
  {
    "COMPOUND": "CC(C)c1noc(CCC(=O)NCC(c2ccco2)N2CCCC2)n1 (configuration not stated)",
    "UNITS LABEL": "%",
    "cytotoxicity at 70.5 h": -7.17
  },
  {
    "COMPOUND": "Cn1ccc(C(=O)NCCOc2ccc3c(c2)OCO3)cc1=O",
    "UNITS LABEL": "%",
    "cytotoxicity at 70.5 h": -6.82
  },
  {
    "COMPOUND": "Cn1cnn(Cc2ccccc2F)c1=O",
    "UNITS LABEL": "%",
    "cytotoxicity at 70.5 h": 2.33
  },
  {
    "COMPOUND": "Cn1nc(C(=O)NC2(c3ccccc3)CCC2)ccc1=O",
    "UNITS LABEL": "%",
    "cytotoxicity at 70.5 h": 1.95
  },
  {
    "COMPOUND": "CC(C)c1cc(C2CCN(C(=O)Cn3nc4ccccc4n3)CC2)[nH]n1",
    "UNITS LABEL": "%",
    "cytotoxicity at 70.5 h": -5.96
  },
  {
    "COMPOUND": "COc1cccc(C(=O)NS(=O)(=O)c2cccc(C#N)c2)c1",
    "UNITS LABEL": "%",
    "cytotoxicity at 70.5 h": -6.99
  },
  {
    "COMPOUND": "CN(C)c1ccc(CNC(=O)c2ccc(Cl)cc2F)cc1",
    "UNITS LABEL": "%",
    "cytotoxicity at 70.5 h": 3.13
  },
  {
    "COMPOUND": "O=C(NC1CCCC1)c1nc2c(o1)CN(C(=O)CCO)C2",
    "UNITS LABEL": "%",
    "cytotoxicity at 70.5 h": -4.91
  }
]

* * *

Test: Human HepG2 cell viability assay in 384 well format
Type: toxicity, cell-based
Set-up: dose 125 nL, time 70.5 hour; concentration not given beside the values
Settings: HepG2 cells, read-out: Inhibition

[
  {
    "SMILES DATA": "COCCN(Cc1cccc(O)c1)Cc1ccccc1F",
    "cytotoxicity at 70.5 h, %": 1.04
  },
  {
    "SMILES DATA": "CCCc1cncnc1N1CCC2(CCC(=O)N(CCOC)C2)CC1",
    "cytotoxicity at 70.5 h, %": 13.2
  },
  {
    "SMILES DATA": "O=C(NCCc1cccnc1)Nc1cc(C(F)(F)F)c[nH]c1=O",
    "cytotoxicity at 70.5 h, %": 14.6
  },
  {
    "SMILES DATA": "Cc1cc(C)c(S(=O)(=O)Nc2ccccc2CC(F)(F)F)cc1C(=O)O",
    "cytotoxicity at 70.5 h, %": -8.62
  },
  {
    "SMILES DATA": "Cc1cccc(C(=O)N2C[C@@H]3[C@H](CC(=O)N4CCCC4)[C@@H]3C2)n1",
    "cytotoxicity at 70.5 h, %": -6.1
  },
  {
    "SMILES DATA": "Cc1cc(C)c2nc(CNCCNS(C)(=O)=O)cc(O)c2c1",
    "cytotoxicity at 70.5 h, %": -2.21
  }
]

* * *

Assay: Human HepG2 cell viability assay in 384 well format
Assay type: toxicity, cell-based
Parameters: dose 125 nL, time 70.5 hour; concentration not given beside the values
Details: HepG2 cells, read-out: Inhibition

[
  {
    "SMILES DATA": "COCCN(C(=O)c1cnccn1)c1nc2c(s1)CCc1c-2cnn1C",
    "cytotoxicity at 70.5 h / %": 7
  },
  {
    "SMILES DATA": "O=C(N1CCCC1)N1C[C@H]2CC[C@@]3(N=C(c4ccccc4)NC3=O)[C@H]2C1",
    "cytotoxicity at 70.5 h / %": 12.6
  },
  {
    "SMILES DATA": "CC1=CC[C@@H]2CN(C(=O)c3ccc(-c4nc[nH]n4)cc3)C[C@@H]2C1",
    "cytotoxicity at 70.5 h / %": 11
  },
  {
    "SMILES DATA": "Cc1nc2cc(=O)[nH]n2c(C)c1CC(=O)Nc1cn[nH]c1",
    "cytotoxicity at 70.5 h / %": -2.66
  },
  {
    "SMILES DATA": "CC(C)c1ccc(OCCC(=O)N(C)C)cc1",
    "cytotoxicity at 70.5 h / %": 12.7
  }
]

* * *

Measured cytotoxicity at 70.5 h, listed per entry for reference.
Assay: Human HepG2 cell viability assay in 384 well format
Format: toxicity, cell-based
Design: dose 125 nL, time 70.5 hour; concentration not given beside the values
Settings: HepG2 cells, read-out: Inhibition
ASSAY READOUT: cytotoxicity at 70.5 h

[
  {
    "COMPOUND": "CCc1ccc(C(C)NC(=O)c2ccc(CS(C)(=O)=O)o2)cc1 (configuration not stated)",
    "RECORDED MEASUREMENT": "-4.79%"
  },
  {
    "COMPOUND": "COCCc1noc(CN2CCc3nn(C(C)C)c(=O)cc3C2)n1",
    "RECORDED MEASUREMENT": "32.4%"
  },
  {
    "COMPOUND": "Cn1ccnc1SCC(=O)NCCC1CCCO1 (configuration not stated)",
    "RECORDED MEASUREMENT": "31.2%"
  },
  {
    "COMPOUND": "C(=C\\c1ccc(CN2CCCC2)cn1)/c1ccccc1",
    "RECORDED MEASUREMENT": "6.88%"
  },
  {
    "COMPOUND": "CCc1cc(N2CC(N3CCCCC3C)C2)n2nccc2n1 (configuration not stated)",
    "RECORDED MEASUREMENT": "6.74%"
  },
  {
    "COMPOUND": "COc1c(CNC2(c3noc(C)n3)CCC2)c(C)nn1C",
    "RECORDED MEASUREMENT": "-7.32%"
  },
  {
    "COMPOUND": "CN1CCN(C(=O)c2cnc3c(cnn3C3CCCC3)c2)CC1",
    "RECORDED MEASUREMENT": "-10%"
  },
  {
    "COMPOUND": "CCNC(=O)c1ccc(N2CCCC(c3nccn3C(C)C)C2)nc1 (configuration not stated)",
    "RECORDED MEASUREMENT": "-10.3%"
  },
  {
    "COMPOUND": "Cn1cc(Br)c(=O)c(NS(=O)(=O)c2ccc3c(c2)CCC3)c1",
    "RECORDED MEASUREMENT": "2.07%"
  },
  {
    "COMPOUND": "Cc1ccccc1C(O)CNS(=O)(=O)Cc1cccc(C#N)c1 (configuration not stated)",
    "RECORDED MEASUREMENT": "-3.55%"
  },
  {
    "COMPOUND": "COCCO[C@@H]1CCN(C(=O)c2ccnnc2)[C@H]1Cc1cnn(C)c1",
    "RECORDED MEASUREMENT": "-116%"
  },
  {
    "COMPOUND": "O=c1oc(-c2ccc(F)cc2)nn1CCc1ccncc1",
    "RECORDED MEASUREMENT": "-9.83%"
  }
]
